src = ChEMBL document CHEMBL4000243

Reported CC50 is given for each of the following compounds.
Test: Cytotoxicity against African green monkey Vero cells assessed as reduction in cell viability by MTT assay
Assay type: cell-based
Settings: chlorocebus sabaeus

Consider the reported CC50 for these compounds:
>>> reading("CC(=O)CC[C@H](COC(C)=O)c1c(O)cc2c(c1O)C(=O)c1c(O)cc(O)cc1C2=O")
"65.1 µM"
>>> reading("Nc1nc2c(ncn2COCCO)c(=O)[nH]1 [ACYCLOVIR]")
"> 1000 µM"
>>> reading("CC(=O)CCCC(c1c(C)cc(Oc2cc(C)cc(O)c2)cc1O)c1c(O)cc2c(c1O)C(=O)c1c(O)cc(O)cc1C2=O (racemic)")
"109 µM"

Then there is this compound:
Record "C[C@H](O)CC[C@H](CO)c1c(O)cc2c(c1O)C(=O)c1c(O)cc(O)cc1C2=O" , field CC50: 50.7 µM

###

System: Bugula neritina
Test: Antifouling activity against Bugula neritina assessed as inhibition of larval settlement after 1 hr by dissecting microscopy
Type: functional
Binarize EC50 at 2 µg/mL; below is condition met, at or above is condition not met.

>>> group_label("Cc1c(O)cc(CC(=O)C[C@H](C)O)c(C=O)c1O")
"condition not met"
>>> group_label("Cc1cc(O)cc(Oc2cc(C)c(C(=O)OCC(O)CO)c(O)c2)c1 (racemic)")
"condition met"
>>> group_label("Cc1cc(O)c(Oc2cc(C)cc(Oc3cc(C)cc(O)c3O)c2O)c(O)c1")
"condition met"
>>> group_label("Cc1cc(O)c(Oc2cc(C)cc(O)c2Oc2cc(C)cc(O)c2O)c(O)c1")
"condition not met"

Proceed to the following item.
**Q:** Is 2 µg/mL strictly greater than the compound's reported EC50? compound: "Cc1cc(O)c(O)c(Oc2cc(C)cc(O)c2Oc2cc(C)cc(O)c2O)c1"
**A:** condition not met
